Reference source: patent US3974140A

# Tested on: E. coli 14
# experimentNotes: MIC, liquid medium test tube series dilution test
# Assay type: cell-based
# conditionContext: E. coli 14, 24 hours, 37°C
assayReadout: MIC (units/ml)

a: CN(C(=O)Cc1ccc([N+](=O)[O-])cc1)C(=O)N[C@@H](C(=O)N[C@@H]1C(=O)N2[C@@H]1SC(C)(C)[C@@H]2C(=O)O)c1ccccc1 [Example 132]
b: CCN(C(=O)N[C@@H](C(=O)N[C@@H]1C(=O)N2[C@@H]1SC(C)(C)[C@@H]2C(=O)O)c1ccccc1)C(=O)c1ccccc1Cl [Example 138]
Q) Higher MIC: a or b ? Use the label to indicate which entry you chose.
A) b
(b: 6.25 units/ml, a: 0.8 units/ml)

----------
# Tested on: Staph. aureus 1777 E
# experimentNotes: MIC, liquid medium test tube series dilution test
# Assay type: cell-based, Staphylococcus aureus
# conditionContext: 24 hours, 37°C
assayReadout: MIC (units/ml)

Q) Give Staph. aureus 1777 E MIC for CC(=O)N(C)C(=O)N[C@@H](C(=O)N[C@@H]1C(=O)N2[C@@H]1SC(C)(C)[C@@H]2C(=O)O)c1ccccc1 [Example 66A]
A) 50

P: CCCCOC(=O)N(C)C(=O)N[C@@H](C(=O)N[C@@H]1C(=O)N2[C@@H]1SC(C)(C)[C@@H]2C(=O)O)c1ccccc1 [Example 98]
Q: CC(C)OC(=O)N(C)C(=O)N[C@@H](C(=O)N[C@@H]1C(=O)N2[C@@H]1SC(C)(C)[C@@H]2C(=O)O)c1ccccc1 [Example 11 C]
Q) Higher MIC: P or Q ? Use the label to indicate which entry you chose.
A) Q

----------
# Tested on: Proteus vulg. 1017
# experimentNotes: MIC, liquid medium test tube series dilution test
# Format: cell-based, Proteus vulgaris
# conditionContext: Proteus vulg. 1017, 24 hours, 37°C
assayReadout: MIC

Q) Would you mind telling me what MIC value was observed for CC1(C)S[C@@H]2[C@H](NC(=O)[C@H](NC(=O)N3CCCCCC3=O)c3ccccc3)C(=O)N2[C@H]1C(=O)O ?
A) 100-500 units/ml

More entries:
Q) Would you mind telling me what MIC value was observed for CCCN(C(C)=O)C(=O)N[C@@H](C(=O)N[C@@H]1C(=O)N2[C@@H]1SC(C)(C)[C@@H]2C(=O)O)c1ccccc1 ?
A) 20-100 units/ml

Q) Would you mind telling me what MIC value was observed for Cc1ccc(C(NC(=O)N(C)C(=O)c2ccccc2)C(=O)N[C@@H]2C(=O)N3[C@@H]2SC(C)(C)[C@@H]3C(=O)O)cc1 (stereo partly shown) ?
A) 4-20 units/ml

Q) Would you mind telling me what MIC value was observed for CCCN(C(=O)N[C@@H](C(=O)N[C@@H]1C(=O)N2[C@@H]1SC(C)(C)[C@@H]2C(=O)O)c1ccccc1)C(=O)c1ccc(OC)c([N+](=O)[O-])c1 ?
A) 20-100 units/ml

Q) Would you mind telling me what MIC value was observed for COC(=O)N(C)C(=O)NC(C(=O)N[C@@H]1C(=O)N2[C@@H]1SC(C)(C)[C@@H]2C(=O)O)c1ccc(OC)cc1 (stereo partly shown) ?
A) 100-500 units/ml

Q) Would you mind telling me what MIC value was observed for CN(C(=O)N[C@@H](C(=O)N[C@@H]1C(=O)N2[C@@H]1SC(C)(C)[C@@H]2C(=O)O)c1ccccc1)C(=O)c1cc(Cl)ccc1Cl ?
A) 0.8-4 units/ml

Q) Would you mind telling me what MIC value was observed for COC(=O)N(C)C(=O)NC(C(=O)N[C@@H]1C(=O)N2[C@@H]1SC(C)(C)[C@@H]2C(=O)O)c1c(Cl)cccc1Cl (stereo partly shown) ?
A) > 500 units/ml

----------
Reported MIC values follow for various compounds
# Tested on: E. coli C 165
# experimentNotes: MIC, liquid medium test tube series dilution test
# Format: cell-based
# conditionContext: E. coli C 165, 24 hours, 37°C

Q) Give E. coli C 165 MIC for CCN(C(=O)N[C@@H](C(=O)N[C@@H]1C(=O)N2[C@@H]1SC(C)(C)[C@@H]2C(=O)O)c1ccccc1)C(=O)c1ccccc1Cl [Example 138]
A) 25 units/ml

Q) Give E. coli C 165 MIC for CN(C(=O)CCC(Cl)(Cl)Cl)C(=O)N[C@@H](C(=O)N[C@@H]1C(=O)N2[C@@H]1SC(C)(C)[C@@H]2C(=O)O)c1ccccc1 [Example 89]
A) 6.25 units/ml

Q) Give E. coli C 165 MIC for CCC(=O)N(C(=O)N[C@@H](C(=O)N[C@@H]1C(=O)N2[C@@H]1SC(C)(C)[C@@H]2C(=O)O)c1ccccc1)c1ccccc1 [Example 143]
A) 50 units/ml

Q) Give E. coli C 165 MIC for CCOC(=O)N(C)C(=O)NC(C(=O)N[C@@H]1C(=O)N2[C@@H]1SC(C)(C)[C@@H]2C(=O)O)c1ccc(SC)cc1 (stereo partly shown) [Example 35]
A) 20-100 units/ml

Q) Give E. coli C 165 MIC for CC(=O)N(C)C(=O)N[C@@H](C(=O)N[C@@H]1C(=O)N2[C@@H]1SC(C)(C)[C@@H]2C(=O)O)c1ccccc1 [Example 66A]
A) 12.5 units/ml

Q) Give E. coli C 165 MIC for CCCCCCCCCCCCCCCCCC(=O)N(C)C(=O)N[C@@H](C(=O)N[C@@H]1C(=O)N2[C@@H]1SC(C)(C)[C@@H]2C(=O)O)c1ccccc1 [Example 71]
A) > 400 units/ml

Q) Give E. coli C 165 MIC for C=CCN(C(=O)NC(C(=O)N[C@@H]1C(=O)N2[C@@H]1SC(C)(C)[C@@H]2C(=O)O)c1c(Cl)cccc1Cl)C(=O)c1ccccc1 (stereo partly shown) [Example 15]
A) 100-500 units/ml

Q) Give E. coli C 165 MIC for CN(C(=O)NC(C(=O)N[C@@H]1C(=O)N2[C@@H]1SC(C)(C)[C@@H]2C(=O)O)c1cccs1)C(=O)c1ccco1 (stereo partly shown) [Example 22]
A) 4-20 units/ml

Q) Give E. coli C 165 MIC for CN(C(=O)N[C@@H](C(=O)N[C@@H]1C(=O)N2[C@@H]1SC(C)(C)[C@@H]2C(=O)O)c1ccccc1)C(=O)OC1CCCCC1 [Example 29]
A) 6.3 units/ml

Q) Give E. coli C 165 MIC for CN(C(=O)N[C@@H](C(=O)N[C@@H]1C(=O)N2[C@@H]1SC(C)(C)[C@@H]2C(=O)O)c1ccccc1)C(=O)c1ccc(Cl)cc1 [Example 112]
A) 0.8-4 units/ml

More entries:
Q) Give E. coli C 165 MIC for CN(C(=O)Cc1ccc([N+](=O)[O-])cc1)C(=O)N[C@@H](C(=O)N[C@@H]1C(=O)N2[C@@H]1SC(C)(C)[C@@H]2C(=O)O)c1ccccc1 [Example 132]
A) 0.8-4 units/ml

Q) Give E. coli C 165 MIC for CCCCCCCCCCCCCCCCN(C(C)=O)C(=O)N[C@@H](C(=O)N[C@@H]1C(=O)N2[C@@H]1SC(C)(C)[C@@H]2C(=O)O)c1ccccc1 [Example 74]
A) > 400 units/ml

Q) Give E. coli C 165 MIC for CN(C(=O)N[C@@H](C(=O)N[C@@H]1C(=O)N2[C@@H]1SC(C)(C)[C@@H]2C(=O)O)c1ccccc1)C(=O)c1ccccc1Cl [Example 107]
A) < 0.8 units/ml

----------
# System: Staph. aureus 133
# experimentNotes: Surviving mice after intraperitoneal infection and subcutaneous therapy
# Format: in vivo, white mice, CF1 strain
# conditionContext: 2 × 200 units/mouse s.c., 1 day
# Protocol: The experiments on animals (see Table 3) were carried out with white mice of the CF1 strain. The infection took place intraperitoneally with the particular bacterium indicated.
assayReadout: Number of surviving mice (%)
API: value field is a number in %; no unit string.

# example entries with known answers
Q) Would you mind telling me what Number of surviving mice value was observed for Cc1ccc(C(=O)N(C)C(=O)N[C@@H](C(=O)N[C@@H]2C(=O)N3[C@@H]2SC(C)(C)[C@@H]3C(=O)O)c2ccccc2)cc1 [Example 73] ?
A) 80

Q) Would you mind telling me what Number of surviving mice value was observed for CN(C(=O)N[C@@H](C(=O)N[C@@H]1C(=O)N2[C@@H]1SC(C)(C)[C@@H]2C(=O)O)c1ccccc1)C(=O)c1ccccc1 [Example 59] ?
A) 90

Field: next compound
Q) Would you mind telling me what Number of surviving mice value was observed for CC(=O)N(C)C(=O)N[C@@H](C(=O)N[C@@H]1C(=O)N2[C@@H]1SC(C)(C)[C@@H]2C(=O)O)c1ccccc1 [Example 66A] ?
A) 100

----------
# Test system: Psdm. aerug. Bonn
# experimentNotes: MIC, liquid medium test tube series dilution test
# Type: cell-based, Pseudomonas aerug.
# conditionContext: 24 hours, 37°C
Reported MIC values follow for various compounds

Q) Give Psdm. aerug. Bonn MIC for CSc1ccc(C(NC(=O)N2CCNC2=O)C(=O)N[C@@H]2C(=O)N3[C@@H]2SC(C)(C)[C@@H]3C(=O)O)cc1 (stereo partly drawn) [Example 54]
A) 12,5 units/ml

Q) Give Psdm. aerug. Bonn MIC for CCOC(=O)N(C)C(=O)NC(C(=O)N[C@@H]1C(=O)N2[C@@H]1SC(C)(C)[C@@H]2C(=O)O)c1ccc(SC)cc1 (stereo partly drawn)
A) 4-20 units/ml

Field: next compound
Q) Give Psdm. aerug. Bonn MIC for COC(=O)N(C)C(=O)NC(C(=O)N[C@@H]1C(=O)N2[C@@H]1SC(C)(C)[C@@H]2C(=O)O)c1c(Cl)cccc1Cl (stereo partly drawn)
A) > 500 units/ml
